Ref: the supplement of paper PMC9694430

system: LOC_OS02G08530-cb003; test: thermal shift delta Tm vs DMSO control; higher = stronger stabilization (binding); conditions: 12.5 µM; protein concentration 2 µM;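 also: purified Escherichia coli-expressed rice kinase domain construct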
Structures can show the parent of a compound that is named as a salt.
Each entry below carries its recorded thermal shift delta Tm.
// return numeric value only (unit: °C, not printed)

CCn1cc(-c2ccnc3[nH]c(-c4cccc(CN(C)C)c4)cc23)c(-c2ccc(NC(=O)N(C)C)cc2)n1
1.02
Cn1cc(-c2ccc3nnc(C(F)(F)c4ccc5ncccc5c4)n3n2)cn1
1.21
O=C(Nc1cnn2ccc(N3CCC[C@@H]3c3cc(F)ccc3F)nc12)N1CC[C@H](O)C1 [Larotrectinib (LOXO-101) sulfate]
0.6
Cn1cc(-c2cnn3c(N)c(Br)c([C@@H]4CCCNC4)nc23)cn1
0.14
CC(C)(O)CNc1ncc(-c2ccnc(Nc3ccnc(Cl)c3)n2)c(CC2CC2)n1
0.89

Input: Any idea what thermal shift delta Tm was measured for CC(=O)Nc1cccc(-n2c(=O)n(C3CC3)c(=O)c3c(Nc4ccc(I)cc4F)n(C)c(=O)c(C)c32)c1 ?
Output: 1.99

Input: Any idea what thermal shift delta Tm was measured for Oc1ccc(Nc2nc(-c3ccc(Cl)cc3)cs2)cc1 ?
Output: -0.94

Input: Any idea what thermal shift delta Tm was measured for CCc1cccc(CC)c1NC(=O)N1Cc2[nH]nc(NC(=O)c3ccc(N4CCN(C)CC4)cc3)c2C1 ?
Output: 0.96

---

test system: LOC_OS01G14860-cb001; assay: thermal shift delta Tm vs DMSO control; higher = stronger stabilization (binding); conditions: 12.5 µM; protein concentration 2 µM
Where a name gives a salt, the structure may show the parent alone.
Rule: thermal shift delta Tm under 0.6 °C gives -1, otherwise 1.

O=C(Nc1cccc(Cl)c1)Nc1ncc(CCNc2ncnc3ccsc23)s1 [SNS-314 Mesylate]
1

Input: Record Cc1cc(Nc2cc(N3CCN(C)CC3)nc(/C=C/c3ccccc3)n2)n[nH]1 [ENMD-2076 L-(+)-Tartaric acid] ; criterion: thermal shift delta Tm no lower than 0.6 °C. Met?
Output: 1

Input: Record O=C1NC(=O)C(c2ccccc2[N+](=O)[O-])=C1Nc1ccc(O)c(Cl)c1 ; criterion: thermal shift delta Tm no lower than 0.6 °C. Met?
Output: 1

Input: Record CC1=C(C(=O)Nc2ccc3[nH]ncc3c2)C(c2ccc(F)cc2)NC(=O)N1 (centres undefined) ; criterion: thermal shift delta Tm no lower than 0.6 °C. Met?
Output: 1

Input: Record O=C(Nc1ccccc1C(=O)NC1CCCCNC1=O)c1cc2ccccc2s1 (centres undefined) ; criterion: thermal shift delta Tm no lower than 0.6 °C. Met?
Output: -1

Input: Record O=c1ccc2ccc(O)c(O)c2o1 ; criterion: thermal shift delta Tm no lower than 0.6 °C. Met?
Output: 1

Input: Record CC(C)CC(=O)Nc1n[nH]c2c1CN(C(=O)C1CCN(C)CC1)C2(C)C ; criterion: thermal shift delta Tm no lower than 0.6 °C. Met?
Output: 1

Input: Record COc1cc2ncnc(Nc3ccc(F)c(Cl)c3)c2cc1NC(=O)/C=C/CN1CCCCC1 ; criterion: thermal shift delta Tm no lower than 0.6 °C. Met?
Output: -1

Input: Record C[C@H](Nc1ncnc2[nH]cnc12)c1cc2ccc(F)cc2nc1-c1ccccn1 ; criterion: thermal shift delta Tm no lower than 0.6 °C. Met?
Output: -1

Input: Record CNC(=O)Nc1ccc(-c2nc(N3CC4CCC(C3)O4)c3cnn(C4CCC5(CC4)OCCO5)c3n2)cc1 ; criterion: thermal shift delta Tm no lower than 0.6 °C. Met?
Output: -1

---

system: LOC_OS01G60330-cb001; experiment: thermal shift delta Tm vs DMSO control; higher = stronger stabilization (binding); conditions: 12.5 µM; protein concentration 2 µM
Measure name: thermal shift delta Tm

CC1(C)OC(=O)C=C[C@]2(C)[C@H]3CC[C@@]4(C)[C@H](c5ccoc5)OC(=O)[C@H]5O[C@]54[C@]3(C)C(=O)C[C@@H]12
0.6 °C
Oc1c(F)cc(-c2cnccc2-c2ccc(N3CCOCC3)cc2)cc1F
1.01 °C
O=C1Nc2ccc(I)cc2/C1=C/c1cc(Br)c(O)c(Br)c1
7.94 °C
CCOc1cc(N2CCC(O)CC2)ccc1Nc1ncc2c(n1)N(C)c1ccccc1C(=O)N2C
0.82 °C

Input: Any idea what thermal shift delta Tm was measured for Cc1cnc(NC(=O)Nc2cc(Br)c(C)cc2OC[C@@H]2CNCCO2)cn1 ?
Output: 0.18 °C

---

tested on: LOC_OS01G60330-cb001; assay: thermal shift delta Tm vs DMSO control; higher = stronger stabilization (binding); settings: 12.5 µM; protein concentration 2 µM
Measure name: thermal shift delta Tm (°C)
// return numeric value only (unit: °C, not printed)

COc1ccc(F)c(F)c1C(=O)c1cnc(NC2CCN(S(C)(=O)=O)CC2)nc1N
0.06
Cc1cc(Nc2cc(N)ncn2)c(=O)n2c1C(=O)NC21CCCCC1
0.51
Cc1cc(C(C)Nc2ccccc2)c2nc(N3CCOCC3)cc(=O)n2c1 (stereo unspecified)
1.22
C=CC(=O)Nc1cccc(Nc2nc(Nc3ccc(N4CCN(C(C)=O)CC4)cc3OC)ncc2C(F)(F)F)c1 [Rociletinib (CO-1686, AVL-301)]
1.53

Input: Any idea what thermal shift delta Tm was measured for CCn1c(=O)c(-c2ccc(Cl)cc2Cl)cc2cnc(Nc3ccc(N4CCNCC4)c(F)c3)nc21 ?
Output: 0.13

Input: Any idea what thermal shift delta Tm was measured for CC(C)S(=O)(=O)c1ccc2nccc(Nc3ccc4scnc4c3)c2c1 ?
Output: 0.31

Input: Any idea what thermal shift delta Tm was measured for CCCNC(=O)Nc1ccc(Oc2ncnc3cc(OC)c(OC)cc23)cc1Cl ?
Output: 0.97

Input: Any idea what thermal shift delta Tm was measured for COC(=O)N[C@@H](C)CNc1nccc(-c2cn(C(C)C)nc2-c2cc(Cl)cc(NS(C)(=O)=O)c2F)n1 [Encorafenib (LGX818)] ?
Output: 0.6

Input: Any idea what thermal shift delta Tm was measured for CSc1cccc(Nc2ncc3cc(-c4c(Cl)cccc4Cl)c(=O)n(C)c3n2)c1 ?
Output: 0.88

Input: Any idea what thermal shift delta Tm was measured for Cn1cnc(N)c2ncnc1-2 [3-Methyladenine (3-MA)] ?
Output: 1.27

Input: Any idea what thermal shift delta Tm was measured for Cc1ccc(CNc2ncnc3ccc(-c4ccc(CO)o4)cc23)o1 ?
Output: 0.84

---

system: LOC_OS01G52050-cb004; assay: thermal shift delta Tm vs DMSO control; higher = stronger stabilization (binding); conditions: 12.5 µM; protein concentration 2 µM
Sequence (as listed by the source): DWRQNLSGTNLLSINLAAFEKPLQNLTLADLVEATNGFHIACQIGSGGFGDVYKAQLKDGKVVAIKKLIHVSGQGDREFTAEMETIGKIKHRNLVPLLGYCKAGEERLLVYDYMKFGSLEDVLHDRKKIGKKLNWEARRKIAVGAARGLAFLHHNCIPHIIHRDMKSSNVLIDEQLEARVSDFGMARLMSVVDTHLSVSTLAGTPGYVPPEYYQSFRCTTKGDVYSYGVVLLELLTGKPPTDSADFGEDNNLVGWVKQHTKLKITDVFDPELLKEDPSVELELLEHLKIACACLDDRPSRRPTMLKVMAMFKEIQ
Rule: thermal shift delta Tm under 1 °C gives no, otherwise yes.

Observe how each entry below is paired with its result.
COC(=O)N[C@@H](C)CNc1nccc(-c2cn(C(C)C)nc2-c2cc(Cl)cc(NS(C)(=O)=O)c2F)n1
no
Cc1cc(Nc2cc(N3CCN(C)CC3)nc(/C=C/c3ccccc3)n2)n[nH]1
yes
Cc1cc2c(F)c(Oc3ncnn4cc(OC[C@@H](C)OC(=O)[C@H](C)N)c(C)c34)ccc2[nH]1
no
Nc1ncc(-c2ccnc(Nc3ccncc3)n2)c(CC2CC2)n1
no
COc1cccc(-c2cc(=O)c3ccccc3o2)c1N
no

Input: Record Cc1cc(Nc2cc(Cl)nc(Oc3ccc([N+](=O)[O-])cc3)n2)n[nH]1 ; criterion: thermal shift delta Tm no lower than 1 °C. Met?
Output: yes

Input: Record O=C(Nc1cccnc1)c1cc(-c2ccnc(F)c2)ccc1OCc1ccccc1 ; criterion: thermal shift delta Tm no lower than 1 °C. Met?
Output: no

Input: Record CCOc1cc2ncc(C#N)c(Nc3ccc(OCc4ccccn4)c(Cl)c3)c2cc1NC(=O)/C=C/CN(C)C ; criterion: thermal shift delta Tm no lower than 1 °C. Met?
Output: yes

Input: Record O=C(NCCO)c1cccc(-c2cc(Nc3ccc(OC(F)(F)F)cc3)ncn2)c1 ; criterion: thermal shift delta Tm no lower than 1 °C. Met?
Output: yes

Input: Record Cc1cc(CS(=O)(=O)c2ccccc2)cc(OCc2ccc(CN3CCC[C@@H]3CO)cc2)c1 ; criterion: thermal shift delta Tm no lower than 1 °C. Met?
Output: no

Input: Record COc1nccnc1NS(=O)(=O)c1ccc(NC(=O)/C=C/c2ccc([N+](=O)[O-])s2)cc1 [Necrosulfonamide] ; criterion: thermal shift delta Tm no lower than 1 °C. Met?
Output: no

Input: Record CS(=O)(=O)c1cccc(CNc2nc(Nc3ccc4c(c3)CCC(=O)N4)ncc2C(F)(F)F)c1 ; criterion: thermal shift delta Tm no lower than 1 °C. Met?
Output: yes

Input: Record COc1ccc(Cl)cc1NC(=O)Nc1cc(C)nc2ccccc12 ; criterion: thermal shift delta Tm no lower than 1 °C. Met?
Output: yes

Input: Record Cc1cc(C(C)Nc2ccccc2)c2nc(N3CCOCC3)cc(=O)n2c1 (centres undefined) ; criterion: thermal shift delta Tm no lower than 1 °C. Met?
Output: no

Input: Record O=c1cc(-c2cccc3c2Sc2ccccc2S3)oc(N2CCOCC2)c1 ; criterion: thermal shift delta Tm no lower than 1 °C. Met?
Output: no

Input: Record Cc1nc2ccc(-n3ncc(C(=O)c4cc5ccccc5[nH]4)c3N)cc2[nH]1 ; criterion: thermal shift delta Tm no lower than 1 °C. Met?
Output: yes

Input: Record Nc1nc(N)c2nc(-c3cccc(O)c3)c(-c3cccc(O)c3)nc2n1 ; criterion: thermal shift delta Tm no lower than 1 °C. Met?
Output: yes

Input: Record Cc1cnc(Nc2ccc(OCCN3CCCC3)cc2)nc1Nc1cccc(S(=O)(=O)NC(C)(C)C)c1 ; criterion: thermal shift delta Tm no lower than 1 °C. Met?
Output: yes

Input: Record C#Cc1cccc(Nc2ncnc3cc(OCCOC)c(OCCOC)cc23)c1 ; criterion: thermal shift delta Tm no lower than 1 °C. Met?
Output: no

Input: Record CC(C)(C)c1cnc(CSc2cnc(NC(=O)C3CCNCC3)s2)o1 ; criterion: thermal shift delta Tm no lower than 1 °C. Met?
Output: no
